molecular target: T1, cynomolgus monkey BCMA (cynomolgus monkey, UniProt A0A2K5UD97 1-53); assay: SPR, IgG immobilised, 37 C
T1 construct: Soluble analyte in SPR; construct not described; also called cyBCMA; Cyno BCMA
T1 sequence (A0A2K5UD97 entry or part of it): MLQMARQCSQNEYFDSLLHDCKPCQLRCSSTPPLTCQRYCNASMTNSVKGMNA
Below, each entry is listed with its recorded T ½.
Just the number please, in min, no unit attached.

L3.PY/L1.AH/H3.AQ (antibody, V domains shown, IgG) VH: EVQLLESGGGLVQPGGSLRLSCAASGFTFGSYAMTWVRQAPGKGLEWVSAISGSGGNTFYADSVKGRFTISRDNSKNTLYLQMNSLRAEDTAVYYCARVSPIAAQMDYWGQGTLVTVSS VL: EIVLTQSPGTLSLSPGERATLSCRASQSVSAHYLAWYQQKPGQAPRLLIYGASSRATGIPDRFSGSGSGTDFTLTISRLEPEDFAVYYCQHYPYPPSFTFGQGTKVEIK
2.9

Now examine the next entry.
Lookup: T ½ for L3.PY/L3.KF/P6E01 (antibody, V domains shown, IgG) VH: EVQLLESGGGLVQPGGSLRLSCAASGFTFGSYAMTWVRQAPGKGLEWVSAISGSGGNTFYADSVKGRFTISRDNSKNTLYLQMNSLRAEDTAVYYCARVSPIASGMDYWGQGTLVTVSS VL: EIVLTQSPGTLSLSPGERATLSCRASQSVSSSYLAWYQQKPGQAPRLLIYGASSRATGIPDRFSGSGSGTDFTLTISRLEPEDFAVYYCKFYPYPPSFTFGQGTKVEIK ?
Found: 1.39
